Assay Overview: Human HepG2 cell viability assay in 384 well format
Format: toxicity, cell-based
Design: dose 125 nL, time 70.5 hour; concentration not given beside the values
Assay Setup: HepG2 cells, read-out: Inhibition
Listed molecules paired with reported cytotoxicity at 70.5 h

Molecule: Cc1cc(C(=O)N2CCCCC2c2nc3cc(F)ccc3[nH]2)nn1C (stereo not given)
cytotoxicity at 70.5 h (%): -6.6
--
Molecule: Cc1cccc(CS(=O)(=O)c2nnc([C@@H](N)Cc3ccccc3)o2)c1
cytotoxicity at 70.5 h (%): 12.4
--
Molecule: O=C(O)C1(Cc2ccc(F)cc2F)CCCN(Cc2ccccn2)C1 (stereo not given)
cytotoxicity at 70.5 h (%): -5.82
--
Molecule: CNS(=O)(=O)c1cccc(C(C)NCc2cccc(C)c2C)c1 (stereo not given)
cytotoxicity at 70.5 h (%): -12.2
--
Molecule: Cc1cc(F)ccc1S(=O)(=O)N1CCN(C)Cc2ccccc21
cytotoxicity at 70.5 h (%): -6.39
--
Molecule: O=c1cc(C2CCNCC2)nc(CCCc2ccccc2)[nH]1
cytotoxicity at 70.5 h (%): -3.39
--
Molecule: O=C(NC1CC1)C1CNCCN1C(=O)CCOc1ccccc1 (stereo not given)
cytotoxicity at 70.5 h (%): -0.757
--
Molecule: COc1cccc(CC2CCCN2Cc2nccn2C)c1 (stereo not given)
cytotoxicity at 70.5 h (%): -5
--
Molecule: CC1c2cccn2CCN1C(=O)CCCc1nc(-c2ccco2)no1 (stereo not given)
cytotoxicity at 70.5 h (%): -7.42
--
Molecule: O=c1[nH]c2nc(N3CCCCCC3)ncc2c(=O)n1-c1cccc(F)c1
cytotoxicity at 70.5 h (%): -0.0138

###

Assay Overview: Human HepG2 cell viability assay in 384 well format
Assay type: toxicity, cell-based
Parameters: dose 125 nL, time 70.5 hour; concentration not given beside the values
Assay Setup: HepG2 cells, read-out: Inhibition

Compound: CCc1nnc2n1CCN(C(=O)c1cnn(C)c1C1CC1)C2
cytotoxicity at 70.5 h: 8.38%
--
Compound: Cc1cc(S(=O)(=O)N2CCCc3ccc(F)cc32)sc1C(=O)O
cytotoxicity at 70.5 h: -2.82%
--
Compound: CN1CCN(C(=O)CCn2ncc3ccccc32)CC(C(N)=O)C1 (stereo unspecified)
cytotoxicity at 70.5 h: -6.19%
--
Compound: COc1cc([C@@H]2N[C@H](c3nccs3)Cc3ccsc32)cc(OC)c1OC
cytotoxicity at 70.5 h: -0.55%
--
Compound: N#Cc1csc(CNCCOc2ccc(Cl)cn2)c1
cytotoxicity at 70.5 h: -5.85%
--
Compound: O=C(CCN1CCCCO1)N1CCC(CO)(Cc2ccccc2)CC1
cytotoxicity at 70.5 h: -6.23%

###

Assay Overview: Human HepG2 cell viability assay in 384 well format
Assay type: toxicity, cell-based
Design: dose 125 nL, time 70.5 hour; concentration not given beside the values
Assay Setup: HepG2 cells, read-out: Inhibition
Reported cytotoxicity at 70.5 h by item:

Molecule: CC(=O)NCCCSC1CCN(c2ccccc2F)C1=O (stereo unspecified)
Unit Text: %
cytotoxicity at 70.5 h: -11.5
--
Molecule: Cc1cccc(N2CCN(C(=O)CN3CCC(C(N)=O)CC3)CC2)c1
Unit Text: %
cytotoxicity at 70.5 h: -2.32
--
Molecule: COc1cccc(-n2c(C)cc(C(=O)NCCCC(N)=O)c2C)c1
Unit Text: %
cytotoxicity at 70.5 h: -10.3
--
Molecule: O=C(c1ccncn1)N1CCC[C@]2(C[C@@H](OCc3ccccn3)CO2)C1
Unit Text: %
cytotoxicity at 70.5 h: 10.5
--
Molecule: Cc1occc1C(=O)N1C[C@@H]2CCCO[C@@H]2[C@H](NC(=O)CC2CC2)C1
Unit Text: %
cytotoxicity at 70.5 h: -7.56
--
Molecule: CC(C)NC(=O)N1CC[C@@H]2CN(Cc3cccc(Cl)c3)S(=O)(=O)[C@@H]2CC1
Unit Text: %
cytotoxicity at 70.5 h: 27
